Test system: Fibroblast
Test: Multiplex assay against human fibroblast
Format: toxicity, cell-based
Settings: 48 h, 10 µM, compound concentration 10 uM, replicate 1
Assignment: determine reported Population Healthy Nuclei (%) for the given molecules.
Just the number please, in %, no unit attached.

Specify Population Healthy Nuclei (%) for CN[C@@H](C)C(=O)N[C@H](C(=O)N1CCC[C@H]1C(=O)Nc1snnc1-c1ccccc1)C1CCCCC1 and stop.
45

Check the records and state Population Healthy Nuclei (%) for Cc1noc(-c2ccc(-c3ccc(CC(=O)O)cc3)cc2)c1NC(=O)O[C@H](C)c1ccccc1Cl
55

Annotate the molecule COc1ccccc1N1CCN(C[C@@H](C(=O)NC(C)(C)C)c2ccccc2)CC1.Cl.Cl with its measured Population Healthy Nuclei (%).
63

Give the measured Population Healthy Nuclei (%) for CN1CCN(c2cc(-c3ccccc3)nc(N)n2)CC1
58

Name the recorded Population Healthy Nuclei (%) of the molecule listed here: Cc1cccc(NC(=O)CN2CCC(c3ccccn3)CC2)c1.Cl.Cl
75

Indicate the recorded Population Healthy Nuclei (%) value for this molecule: O=C(NCCN1CCC(n2c(=O)[nH]c3cc(Cl)ccc32)CC1)c1ccc(F)cc1 [HALOPEMIDE]
50

In one line, give reported Population Healthy Nuclei (%) of the entry CC(=O)Nc1cccc2c1c(Sc1ccc(Cl)cc1)c(C)n2CC(=O)O .
64

Report measured Population Healthy Nuclei (%); entry is CN(C)C(=O)Cn1cc(-c2ccc(-c3cncc4ccccc34)cc2)cn1
54

Please indicate Population Healthy Nuclei (%) recorded for CCCCC(=O)N(Cc1ccc(-c2ccccc2-c2nnn[nH]2)cc1)[C@H](C(=O)O)C(C)C
56

Look up and state reported Population Healthy Nuclei (%) for CCCCCC(O)/C=C/[C@H]1C(=O)CC(O)C1C/C=C\CCCC(=O)O (stereo partly specified)
74

Query Population Healthy Nuclei (%) for O=C1[C@H](Cc2ccc(O)cc2)N2C(=O)CCN(C(=O)NCc3ccccc3)[C@H]2CN1Cc1cccc2ccccc12
58

Indicate the recorded Population Healthy Nuclei (%) value for this molecule: Cl.N=C(N)NC(=O)Cc1c(Cl)cccc1Cl [GUANFACINE HYDROCHLORIDE]
67

Note down Population Healthy Nuclei (%) recorded for N#Cc1c(Oc2cccc(OS(=O)(=O)CCCC(F)(F)F)c2)cccc1C(F)(F)F
54

Given the molecule Br.CS(=O)(=O)Nc1c(O)ccc2c1CCCC2C1=NCCN1 (stereo unspecified) , write its reported Population Healthy Nuclei (%).
61

Answer with the recorded Population Healthy Nuclei (%) of O=C(CCCc1ccccc1)Nc1nc2ccccc2c(=O)s1 only.
58

For the molecule Cc1cnc(-c2cc(N3CCN(C(=O)CCS(C)(=O)=O)CC3)ncc2Cl)c(C)c1 , give its measured Population Healthy Nuclei (%) value.
69

Give Population Healthy Nuclei (%) for the following molecule: Cc1c(CC(=O)O)c2cccnc2n1Cc1ccc(S(C)(=O)=O)cc1C(F)(F)F
62

Respond only with Population Healthy Nuclei (%) recorded for CC(C)COc1ccc(CNC(=O)N(Cc2ccc(F)cc2)C2CCN(C)CC2)cc1
67

Tell me Population Healthy Nuclei (%) reported for NCCc1cn(S(=O)(=O)c2c(Cl)nc3sccn23)c2ccccc12.O=C(O)C(=O)O
65

Consider the molecule CC[C@@H](C)Nc1nc(C)nc2c(-c3ccc(OC)nc3C)c(C)nn12 . State its measured Population Healthy Nuclei (%).
53

Please indicate Population Healthy Nuclei (%) recorded for CC(/C=C1\SC(=S)N(CCCC(=O)Nc2ccc(C(=O)O)c(O)c2)C1=O)=C\c1ccccc1
69
